Test: Intrinsic clearance in rat liver microsomes assessed per mg protein at […] in presence of NADPH by HPLC analysis
Assay type: ADME, microsome
Settings: read-out: CLH
Quantity Kind: microsomal CLint (µL/min/mg)
Please give a number only; it is taken to be in µL/min/mg.

| Molecule | microsomal CLint (µL/min/mg) |
| --- | --- |
| COc1cc(NC(C)CCCNC(=O)C2CCC3(CC2)OOC2(OO3)C3CC4CC(C3)CC2C4)c2ncccc2c1-c1ccc(C)cc1 (centres undefined) | 15.9 |
| COc1cc(NCCCCNC(=O)C2CCC3(CC2)OOC2(OO3)C3CC4CC(C3)CC2C4)c2ncccc2c1-c1ccc(F)cc1 (centres undefined) | 92.4 |
| COc1cc(NC(C)CCCNC(=O)C2CCC3(CC2)OOC2(OO3)C3CC4CC(C3)CC2C4)c2ncccc2c1-c1ccc(F)cc1 (centres undefined) | 34.6 |
| COc1cc(NC(=O)C2CCC3(CC2)OOC2(OO3)C3CC4CC(C3)CC2C4)c2ncccc2c1-c1ccc(Cl)cc1 (centres undefined) | 11.1 |

Value of measured microsomal CLint for the entry COc1cc(NC(C)CCCNC(=O)C2CCC3(CC2)OOC2(OO3)C3CC4CC(C3)CC2C4)c2ncccc2c1-c1ccsc1 (centres undefined) : 37.4

microsomal CLint reported for this molecule COc1cc(NC(C)CCCNC(=O)C2CCC3(CC2)OOC2(OO3)C3CC4CC(C3)CC2C4)c2ncccc2c1-c1ccccc1 (centres undefined) : 33

Looking up COc1cc(NC(=O)C2CCC3(CC2)OOC2(OO3)C3CC4CC(C3)CC2C4)c2ncccc2c1-c1ccccc1 (centres undefined) , I see its microsomal CLint listed as 33

So for COc1cc(NC(C)CCCNC(=O)C2CCC3(CC2)OOC2(OO3)C3CC4CC(C3)CC2C4)c2ncccc2c1Br (centres undefined) , the logged microsomal CLint turned out to be 99

// microsomal CLint value for COc1cc(NCCCCCNC(=O)C2CCC3(CC2)OOC2(OO3)C3CC4CC(C3)CC2C4)c2ncccc2c1-c1ccc(F)cc1 (centres undefined) : 55.4

The recorded microsomal CLint for COc1cc(NCCCNC(=O)C2CCC3(CC2)OOC2(OO3)C3CC4CC(C3)CC2C4)c2ncccc2c1-c1ccc(F)cc1 (centres undefined) is 39.6

Per the records, this molecule ( COc1cc(NC(=O)C2CCC3(CC2)OOC2(OO3)C3CC4CC(C3)CC2C4)c2ncccc2c1-c1ccc(Br)cc1 (centres undefined) ) has microsomal CLint equal to 11.2

Per the record, COc1cc(NC(C)CCCNC(=O)C2CCC3(CC2)OOC2(OO3)C3CC4CC(C3)CC2C4)c2ncccc2c1-c1ccc(C(F)(F)F)cc1 (centres undefined) has microsomal CLint of 13.9

Record COc1cc(NC(=O)C2CCC3(CC2)OOC2(OO3)C3CC4CC(C3)CC2C4)c2ncccc2c1-c1ccc(F)cc1 (centres undefined) . Reported microsomal CLint: 23.1

The recorded microsomal CLint for entry COc1cc(NC(C)CCCNC(=O)C2CCC3(CC2)OOC2(OO3)C3CC4CC(C3)CC2C4)c2ncccc2c1-c1ccc(Cl)cc1 (centres undefined) equals 10.7

----------
Test system: Huh-7
Experiment: Cytotoxicity against human HuH7 cells assessed as reduction in cell viability at 10 uM after 48 hrs by Alamar blue assay
Type: cell-based
Conditions: huh-7, 48 h
Quantity Kind: Activity

| Compound | Target | Result |
| --- | --- | --- |
| COc1cc(NC(C)CCCNCC2CCC3(CC2)OOC2(OO3)C3CC4CC(C3)CC2C4)c2ncccc2c1-c1ccc(Cl)cc1 (configuration not stated) | Huh-7 | Toxic |
| COc1cc(NC(C)CCCNC(=O)C2CCC3(CC2)OOC2(OO3)C3CC4CC(C3)CC2C4)c2ncccc2c1-c1ccccc1 (configuration not stated) | Huh-7 | Non-Toxic |
| COc1cc(NC(C)CCCNC(=O)C2CCC3(CC2)OOC2(OO3)C3CC4CC(C3)CC2C4)c2ncccc2c1-c1ccc(Cl)cc1 (configuration not stated) | Huh-7 | Non-Toxic |
| COc1cc(NC(C)CCCNCC2CCC3(CC2)OOC2(OO3)C3CC4CC(C3)CC2C4)c2ncccc2c1-c1ccoc1 (configuration not stated) | Huh-7 | Toxic |
| COc1cc(NC(C)CCCNCC2CCC3(CC2)OOC2(OO3)C3CC4CC(C3)CC2C4)c2ncccc2c1-c1ccc(C)cc1 (configuration not stated) | Huh-7 | Toxic |

# evaluate next
Measured Activity, COc1cc(NC(C)CCCNC(=O)C2CCC3(CC2)OOC2(OO3)C3CC4CC(C3)CC2C4)c2ncccc2c1-c1ccsc1 (configuration not stated) : Non-Toxic

----------
Test: Cytotoxicity against human Caco2 cells assessed as reduction in cell viability after 72 hrs by neutral red dye based assay
Conditions: Caco-2 cells
Quantity Kind: CC50 at 72 h (µM)
Give the number; µM is assumed, so skip it.

| Compound | Quantitative Result |
| --- | --- |
| COc1cc(NC(C)CCCNCC2CCC3(CC2)OOC2(OO3)C3CC4CC(C3)CC2C4)c2ncccc2c1-c1ccc(C)cc1 (stereo not given) | 11.7 |

// switching to the query compound
The value of CC50 at 72 h measured for the compound COc1cc(NCCCCNC(=O)C2CCC3(CC2)OOC2(OO3)C3CC4CC(C3)CC2C4)c2ncccc2c1-c1ccc(F)cc1 (stereo not given) turned out to be 10.2

----------
CC50 at 72 h: recorded values
Assay: Cytotoxicity against human Caco2 cells assessed as reduction in cell viability after 72 hrs by neutral red dye based assay
Details: Caco-2 cells

# count of solved cases: 3
| Molecule | Result |
| --- | --- |
| COc1cc(NC(C)CCCNC(=O)C2CCC3(CC2)OOC2(OO3)C3CC4CC(C3)CC2C4)c2ncccc2c1-c1ccc(Br)cc1 (configuration not stated) | > 50 µM |
| COc1cc(NC(C)CCCNC(=O)C2CCC3(CC2)OOC2(OO3)C3CC4CC(C3)CC2C4)c2ncccc2c1-c1ccc(F)cc1 (configuration not stated) | > 50 µM |
| COc1cc(NC(C)CCCNC(=O)C2CCC3(CC2)OOC2(OO3)C3CC4CC(C3)CC2C4)c2ncccc2c1-c1ccc(C(F)(F)F)cc1 (configuration not stated) | > 50 µM |

// CC50 at 72 h lookup, molecule = COc1cc(NC(C)CCCNCC2CCC3(CC2)OOC2(OO3)C3CC4CC(C3)CC2C4)c2ncccc2c1-c1ccc(Cl)cc1 (configuration not stated) , result: 13.2 µM

For reference, reported CC50 at 72 h for COc1cc(NC(C)CCCNCC2CCC3(CC2)OOC2(OO3)C3CC4CC(C3)CC2C4)c2ncccc2c1-c1ccc(C(F)(F)F)cc1 (configuration not stated) stands at 10.3 µM

The reported CC50 at 72 h of the molecule COc1cc(NC(C)CCCNC(=O)C2CCC3(CC2)OOC2(OO3)C3CC4CC(C3)CC2C4)c2ncccc2c1-c1ccc(Cl)cc1 (configuration not stated) was > 50 µM

Entry COc1cc(NC(C)CCCNC(=O)C2CCC3(CC2)OOC2(OO3)C3CC4CC(C3)CC2C4)c2ncccc2c1-c1ccccc1 (configuration not stated) , CC50 at 72 h reported as > 50 µM

----------
Test: Selectivity index, ratio of CC50 for human Caco2 cells to IC50 for chloroquine resistant Plasmodium falciparum W2 erythrocytic ring stage
Format: toxicity
Settings: Caco-2 cells, read-out: Ratio CC50/IC50
Quantity Kind: selectivity ratio

| Compound | Result |
| --- | --- |
| COc1cc(NC(C)CCCNC(=O)C2CCC3(CC2)OOC2(OO3)C3CC4CC(C3)CC2C4)c2ncccc2c1-c1ccc(Br)cc1 (stereo unspecified) | > 1000 |
| COc1cc(NC(C)CCCNC(=O)C2CCC3(CC2)OOC2(OO3)C3CC4CC(C3)CC2C4)c2ncccc2c1-c1ccsc1 (stereo unspecified) | > 600 |
| COc1cc(NC(C)CCCNC(=O)C2CCC3(CC2)OOC2(OO3)C3CC4CC(C3)CC2C4)c2ncccc2c1-c1ccc(Cl)cc1 (stereo unspecified) | > 1000 |
| COc1cc(NC(C)CCCNC(=O)C2CCC3(CC2)OOC2(OO3)C3CC4CC(C3)CC2C4)c2ncccc2c1-c1ccoc1 (stereo unspecified) | > 600 |
| COc1cc(NC(C)CCCNC(=O)C2CCC3(CC2)OOC2(OO3)C3CC4CC(C3)CC2C4)c2ncccc2c1-c1ccc(F)cc1 (stereo unspecified) | > 1000 |

With those in mind, consider the next compound.
Briefly, selectivity ratio measured for COc1cc(NC(C)CCCNC(=O)C2CCC3(CC2)OOC2(OO3)C3CC4CC(C3)CC2C4)c2ncccc2c1-c1ccc(C(F)(F)F)cc1 (stereo unspecified) : > 1000

----------
Assay: Half life in rat liver microsomes at […] in presence of NADPH by HPLC analysis
Type: ADME, microsome
Each entry gets Not met if its half-life stays under 40 min, and Met if its half-life is 40 min or above.

# count of solved cases: 6
| Compound | Answer Label |
| --- | --- |
| COc1cc(NC(=O)C2CCC3(CC2)OOC2(OO3)C3CC4CC(C3)CC2C4)c2ncccc2c1-c1ccccc1 (configuration not stated) | Met |
| COc1cc(NC(C)CCCNC(=O)C2CCC3(CC2)OOC2(OO3)C3CC4CC(C3)CC2C4)c2ncccc2c1-c1ccccc1 (configuration not stated) | Met |
| COc1cc(NCCCCNC(=O)C2CCC3(CC2)OOC2(OO3)C3CC4CC(C3)CC2C4)c2ncccc2c1-c1ccc(F)cc1 (configuration not stated) | Not met |
| COc1cc(NC(C)CCCNC(=O)C2CCC3(CC2)OOC2(OO3)C3CC4CC(C3)CC2C4)c2ncccc2c1-c1ccsc1 (configuration not stated) | Not met |
| COc1cc(NCCCNC(=O)C2CCC3(CC2)OOC2(OO3)C3CC4CC(C3)CC2C4)c2ncccc2c1-c1ccc(F)cc1 (configuration not stated) | Not met |
| COc1cc(NC(C)CCCNC(=O)C2CCC3(CC2)OOC2(OO3)C3CC4CC(C3)CC2C4)c2ncccc2c1-c1ccc(C)cc1 (configuration not stated) | Met |

Hello, I need to know if COc1cc(NC(C)CCCNC(=O)C2CCC3(CC2)OOC2(OO3)C3CC4CC(C3)CC2C4)c2ncccc2c1-c1ccc(C(F)(F)F)cc1 (configuration not stated) has measured half-life not below 40 min. Thanks!
Met
